Numbers sourced from the supplement of paper PMC10567573.

B1: ELF3 (parent)
chain: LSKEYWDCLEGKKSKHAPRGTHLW

Variants of: B1
Experiment: protein stability index of a GFP-peptide fusion (GPS, HEK-293T) (PSI 1-6); higher = more stable;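 also: lentivirally expressed fusions sorted by FACS into six bins by GFP to DsRed ratio, PSI derived from sequencing read proportions per bin multiplied by bin number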
Conditions: c terminus: a fixed tail appended
In this section we review reported protein stability index values for a set of variants.
// print number alone

Please review the following examples before continuing.
Req: Quick one: protein stability index of C8N ?
Resp: 3.07

Req: Quick one: protein stability index of Y5L ?
Resp: 2.19

Req: Quick one: protein stability index of H16R ?
Resp: 2.4

Req: Quick one: protein stability index of K3D ?
Resp: 2.69

Then this variant:
Req: Quick one: protein stability index of T21V ?
Resp: 1.8
